Provenance of the data: patent US12686687B2

Biological target: Nanoluciferase-BRD9 fusion protein (3×FLAG-NLuc-BRD9) in SYO-1 cells (Homo sapiens)
Construct: expressed in transfected cells; host or cells: SYO-1
Sequence (Q9H8M2 1-597): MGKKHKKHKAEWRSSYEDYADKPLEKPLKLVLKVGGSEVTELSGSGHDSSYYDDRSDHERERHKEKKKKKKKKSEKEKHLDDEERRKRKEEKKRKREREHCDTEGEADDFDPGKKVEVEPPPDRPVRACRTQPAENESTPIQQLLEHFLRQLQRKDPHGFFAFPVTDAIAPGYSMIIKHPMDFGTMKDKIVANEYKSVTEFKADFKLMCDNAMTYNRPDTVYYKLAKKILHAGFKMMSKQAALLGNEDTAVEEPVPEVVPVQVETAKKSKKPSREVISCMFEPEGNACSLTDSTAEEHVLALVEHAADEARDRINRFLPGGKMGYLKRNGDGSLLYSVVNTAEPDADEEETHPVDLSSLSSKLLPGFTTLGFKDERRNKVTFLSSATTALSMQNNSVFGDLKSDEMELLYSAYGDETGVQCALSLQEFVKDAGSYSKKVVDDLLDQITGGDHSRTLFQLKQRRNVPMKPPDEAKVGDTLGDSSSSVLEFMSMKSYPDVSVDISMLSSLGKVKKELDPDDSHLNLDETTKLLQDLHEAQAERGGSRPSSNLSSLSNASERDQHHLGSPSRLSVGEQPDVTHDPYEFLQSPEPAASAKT
Experiment: SYO1 BRD9 NanoLuc degradation assay
Format: cell-based
Settings: Table 6C; SYO-1 cells expressing 3×FLAG-NLuc-BRD9, 6 hours incubation, 1 μM top dose; read-out: SYO1 BRD9-NanoLuc degradation IC50
Description: Procedure: A stable SYO-1 cell line expressing 3×FLAG-NLuc-BRD9 was generated. On day 0 cells were seeded in 30 μL media into each well of 384-well cell culture plates. The seeding density was 8000 cells/well. On day 1, cells were treated with 30 nL DMSO or 30 nL of 3-fold serially DMSO-diluted compounds (10 points in duplicates with 1 μM as final top dose). Subsequently plates were incubated for 6 hours in a standard tissue culture incubator and equilibrated at room temperature for 15 minutes. […]
resultType: DC50

Query block: # query: DC50 | item COc1cc(-c2c(C)n(C)c(=O)c3cc(C(=O)NC4CCN(C)CC4(F)F)sc23)cc(OC)c1CN1CC(CN2CCC3(CC2)CN(c2ccc4c(c2)C(=O)N(C2CCC(=O)NC2=O)C4)C3)C1 (stereo not drawn) | system: Nanoluciferase-BRD9 fusion protein (3×FLAG-NLuc-BRD9) in SYO-1 cells (Homo sapiens)
Result block: > 1000 nM

Query block: Then what about the compound COc1cc(-c2c(C)n(C)c(=O)c3ccsc23)cc(OC)c1CN1CCC2(CC1)CN(c1ccc3c(c1)C(=O)N(C1CCC(=O)NC1=O)C3)C2 (stereo not drawn) ?
Result block: < 10 nM

# input for lookup
Query block: # query: DC50 | item COc1cc(-c2cn(C)c(=O)c3ccsc23)cc(OC)c1CN1[C@H](C)CN(c2ccc3c(c2)CN(C2CCC(=O)NC2=O)C3=O)C[C@H]1C (stereo partly drawn) | system: Nanoluciferase-BRD9 fusion protein (3×FLAG-NLuc-BRD9) in SYO-1 cells (Homo sapiens)
Result block: < 10 nM
